Molecular target: OleTLA (Lacicoccus alkaliphilus)
Sequence (A0A1M7CBV6 1-424): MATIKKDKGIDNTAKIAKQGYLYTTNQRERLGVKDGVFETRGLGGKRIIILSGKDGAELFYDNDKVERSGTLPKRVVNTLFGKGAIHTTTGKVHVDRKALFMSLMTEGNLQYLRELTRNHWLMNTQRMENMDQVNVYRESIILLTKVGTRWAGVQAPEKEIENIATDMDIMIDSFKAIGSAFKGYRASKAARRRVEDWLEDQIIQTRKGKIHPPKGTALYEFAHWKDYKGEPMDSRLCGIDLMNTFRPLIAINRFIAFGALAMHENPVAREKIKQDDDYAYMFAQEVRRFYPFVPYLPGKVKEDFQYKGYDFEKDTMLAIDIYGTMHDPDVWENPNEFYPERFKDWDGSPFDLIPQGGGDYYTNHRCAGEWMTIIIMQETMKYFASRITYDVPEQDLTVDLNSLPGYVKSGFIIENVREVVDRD
Assay: Equilibrium substrate binding by heme spectral change (absorbance at 390 nm)
Details: 10% (v/v) EtOH, read-out: Kd from absorbance changes at 390 nm
Readout Name: pKd
Keep it numeric: pKd is minus log10 of the concentration in mol/L.

## Input Quick one: pKd of CCCCCCCCCCCCCCCC(=O)O [C16FA, hexadecanoic acid] ?
## Output 6.28

Where do these numbers come from? They come from paper PMC12284513.
